These data points were gathered from PubChem BioAssay (Tox21).

# assay.protocol: qHTS assay to identify small molecule antagonists of the sonic hedgehog signaling (Shh) pathway (AID 1259369); note: nearly all actives have a fitted effect of over 45% in size
# condition.parameters: NIH/3T3 Gli1-Luc reporter, Shh antagonist, luminescence 24 h; series mostly up to 92.4 µM
Inconclusive results are not listed. The source made the active and inactive calls. Calls come from the whole dose curve.
Respond with a class label; see true = active, false = inactive

Call for entry O=P(Cl)(Cl)Cl : false

Call for entry CN/C(=N\[N+](=O)[O-])NCc1cnc(Cl)s1 : false

Call for entry [Cl][Hg][c]1ccccc1 : true

Call for entry CC1(C)C(C=C(Cl)Cl)C1C(=O)OC(C#N)c1ccc(F)c(Oc2ccccc2)c1 (centres undefined) : false

* * *

# assay.protocol: A CellTox Green Cytotoxicity Assay to monitor cytotoxicity in HepG2 cells - 24 hour (AID 1224878); note: nearly all actives have a fitted effect of over 45% in size
# condition.parameters: CellTox Green fluorescence; series mostly up to 76.8 µM
Results filed as inconclusive are left out. Activity calls are given as the source filed them. The call rests on the fitted dose curve; in most records, active means well fitted activation curve with a large enough effect in the repeat runs; inconclusive means weak or mixed curves; inactive means flat fitted curve, though single readings scatter.
Respond with a class label; see active, inactive

Call for entry O=S1OCC2C(CO1)C1(Cl)C(Cl)=C(Cl)C2(Cl)C1(Cl)Cl (stereo not drawn) : active

Call for entry CC(C)Br : inactive

Call for entry COP(=S)(OC)Oc1ccc([N+](=O)[O-])c(C)c1 : inactive

Call for entry Oc1cccc(Cl)c1Cl : inactive

Call for entry CN1CCc2cc3c(cc2C1O)OCO3 (stereo not drawn) : inactive

Call for entry CN1CCc2cc(Cl)c(O)cc2[C@H]2c3ccccc3CC[C@@H]21 : inactive

Call for entry CCOC(=O)Cc1ccccc1 : inactive

Call for entry COc1nc(C)nc(NC(=O)NS(=O)(=O)c2ccccc2Cl)n1 : inactive

Call for entry Oc1cc(Cl)cc(Cl)c1 : inactive

Call for entry Clc1ccc(C(c2ccc(Cl)cc2)C(Cl)Cl)cc1 : inactive

Call for entry CCC(C)c1cccc(C(C)CC)c1O (stereo not drawn) : active

Call for entry CC(=O)[O-].CC(=O)[O-].[Co+2] : inactive

Call for entry O=[N+]([O-])c1cc(C(F)(F)F)c(Cl)c([N+](=O)[O-])c1Nc1ncc(C(F)(F)F)cc1Cl : active

* * *

# assay.protocol: qHTS assay to identify small molecule agonists of the estrogen receptor alpha (ER-alpha) signaling pathway in the presence of an antagonist - cell viability counter screen (AID 1259386);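 note: cells exposed to compounds for 22 h at 37 °C before the viability read; nearly all actives have a fitted effect of over 30% in size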
# condition.parameters: VM7Luc4E2 viability, CellTiter-Fluor fluorescence, 22 h; series mostly up to 92.4 µM
Inconclusive results are not listed. Calls of active or inactive are those of the source. Calls follow the shape of the dose curve; as a rule, active = well fitted cell-killing curve with a large enough effect in the repeat runs; inconclusive = weak or mixed curves, or effect the other way; inactive = no such curve, though single readings can be large or run the other way.
Respond with a class label; see 1 (active), -1 (inactive)

Call for entry O.O.O.O=C([O-])[C@H]([O-])[C@@H]([O-])C(=O)[O-].O=C([O-])[C@H]([O-])[C@@H]([O-])C(=O)[O-].[K+].[K+].[Sb+3].[Sb+3] : 1

Call for entry CC(Cc1ccc(O)cc1)NCC(O)c1cc(O)cc(O)c1 (configuration not stated) : -1

Call for entry CC(=O)O.CC(=O)O.CC(=O)O.CC(=O)O.CC(=O)O.CC(=O)O.CC(=O)O.O.O.[Cr].[Cr].[Cr] : -1

Call for entry C[N+]1(C)[C@@H]2CC[C@H]1CC(OC(=O)C(CO)c1ccccc1)C2 (some centres not stated) : -1

Call for entry C#CC1(O)CCCCC1 : -1

Call for entry CC(Cc1ccc2c(c1)OCO2)NO (configuration not stated) : -1

Call for entry c1cc[n+]2c(c1)-c1cccc[n+]1CC2 : 1

Call for entry O=[N+]([O-])c1ccccc1-c1ccccc1 : -1

Call for entry CC(=O)C(Cl)C(=O)N(C)C (configuration not stated) : -1

Call for entry O=[N+]([O-])[O-].[Tl+] : -1

Call for entry O=c1[nH]c2cc(Cl)ccc2n1C1CCNCC1 : -1

Call for entry CC(=O)[O][Pb]([c]1ccccc1)([c]1ccccc1)[c]1ccccc1 : 1

* * *

# assay.protocol: Caspase-3/7 induction in HepG2 cells by small molecules, qHTS assay (AID 1346978); note: nearly all actives have a fitted effect of over 15% in size
# condition.parameters: HepG2 caspase-3/7 activation, Caspase-Glo luminescence, 17 h; series mostly up to 92.4 µM
Records with an inconclusive call do not appear. Active and inactive are the calls of the source. Calls follow the shape of the dose curve; as a rule, active = well fitted activation curve with a large enough effect in the repeat runs; inconclusive = weak or mixed curves; inactive = flat fitted curve, though single readings scatter.
Respond with a class label; see active, inactive

Call for entry CC(C)(C)c1ccc(OP(=O)(Oc2ccccc2)Oc2ccccc2)cc1 : inactive

Call for entry C=CC(=C)C : inactive

Call for entry CCN(CC)Cc1nccn1-c1ccc([N+](=O)[O-])cc1C(=O)c1ccccc1Cl : inactive

Call for entry CCN(CC)CCc1c[nH]c2ccccc12 : inactive

Call for entry c1cc[n+]2c(c1)-c1cccc[n+]1CC2 : inactive

Call for entry O=[N+]([O-])c1ccc(CCl)cc1 : inactive

Call for entry CSC(=O)c1c(C(F)F)nc(C(F)(F)F)c(C(=O)SC)c1CC(C)C : inactive

Call for entry COc1ccc2c3c1O[C@H]1[C@H](O)CC[C@H]4[C@@H](C2)N(C)CC[C@@]341 : inactive

Call for entry CNC(C)(C)Cc1ccccc1 : inactive

Call for entry CNC(=O)/C=C(\C)OP(=O)(OC)OC : inactive

Call for entry Nc1cc(Cl)ccc1Cl : inactive

Call for entry COC(=O)c1cc(Oc2ccc(Cl)cc2Cl)ccc1[N+](=O)[O-] : inactive

Call for entry O=[N+]([O-])c1cc(C(F)(F)F)c(Cl)c([N+](=O)[O-])c1Nc1ncc(C(F)(F)F)cc1Cl : inactive

Call for entry N#Cc1c2ccccc2cc2ccccc12 : inactive

Call for entry CC(=O)[O-].CC(=O)[O-].O.O.O.[Pb+2] : inactive

Call for entry [O-][Cl+3]([O-])([O-])O : inactive

Call for entry CCCC[N+]1(C)CCCC1 (tested in a mixture with another compound) : inactive

Call for entry CSSC : active

Call for entry CCOC(=O)CCN(SN(C)C(=O)Oc1cccc2c1OC(C)(C)C2)C(C)C : inactive

Call for entry CCO/N=C(\CC)C1=C(O)CC(c2c(C)cc(C)cc2C)CC1=O (configuration not stated) : inactive

Call for entry COc1cnc(OC)n2nc(NS(=O)(=O)c3c(OCC(F)F)cccc3C(F)(F)F)nc12 : inactive

Call for entry CNN : inactive

* * *

# assay.protocol: qHTS assay to identify small molecule antagonists of the retinoid acid receptor (RAR) signaling pathway - cell viability counter screen (AID 1159551); note: nearly all actives have a fitted effect of over 35% in size
# condition.parameters: C3RL4 cells viability, ATP luminescence (CellTiter-Glo), 6 h; series mostly up to 92.4 µM
Inconclusive results are not listed. Activity calls are given as the source filed them. Calls come from the whole dose curve; as a rule, active = well fitted cell-killing curve with a large enough effect in the repeat runs; inconclusive = weak or mixed curves, or effect the other way; inactive = flat fitted curve, though single readings scatter.
reported.metric: outcome

Worked cases, answers included:
O.O.O.O.O.O.O=S(=O)([O-])[O-].[Ni+2] : inactive
CC(C)NCC(O)c1ccccc1Cl (stereo unspecified) : inactive
O.O.O.O.O.O.O.O=S(=O)([O-])[O-].[Co+2] : inactive
CC(=O)O.CC(=O)O.CC(=O)O.CC(=O)O.CC(=O)O.CC(=O)O.CC(=O)O.O.O.[Cr].[Cr].[Cr] : inactive
Cc1cc2c3c(c1)C(c1ccccc1)=N[C@@H](NC(=O)c1ccncc1)C(=O)N3CC2 : inactive

Tell me its outcome given CN as the entry. inactive

* * *

# target.under.test: Cytochrome P450 2C9 (Homo sapiens) (UniProt P11712)
# Sequence (P11712 whole entry, looked up): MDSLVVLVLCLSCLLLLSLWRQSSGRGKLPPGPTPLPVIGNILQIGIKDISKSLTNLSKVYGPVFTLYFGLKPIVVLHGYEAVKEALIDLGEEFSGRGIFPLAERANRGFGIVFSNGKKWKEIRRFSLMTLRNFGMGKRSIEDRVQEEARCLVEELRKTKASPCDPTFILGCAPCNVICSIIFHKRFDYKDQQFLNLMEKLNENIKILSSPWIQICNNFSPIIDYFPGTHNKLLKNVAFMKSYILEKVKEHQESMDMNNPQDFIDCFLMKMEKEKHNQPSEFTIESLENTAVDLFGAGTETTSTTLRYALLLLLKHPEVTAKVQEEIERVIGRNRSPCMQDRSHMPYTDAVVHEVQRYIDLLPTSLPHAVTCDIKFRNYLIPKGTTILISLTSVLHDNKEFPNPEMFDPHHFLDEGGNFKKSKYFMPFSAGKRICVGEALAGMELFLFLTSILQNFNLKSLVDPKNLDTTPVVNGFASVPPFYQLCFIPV
# assay.protocol: Cytochrome P450 Family 2 Subfamily C Member 9 (CYP2C9) small molecule antagonists: luciferase reporter qHTS assay (AID 1671198); note: nearly all actives have a fitted effect of over 50% in size
# condition.parameters: P450-Glo CYP2C9 enzyme assay, luciferin luminescence; series mostly up to 115 µM
Inconclusive results are not listed. Calls of active or inactive are those of the source. Calls come from the whole dose curve; as a rule, active = well fitted inhibition curve with a large enough effect in the repeat runs; inconclusive = weak or mixed curves; inactive = no such curve, though single readings can be large or run the other way.
Respond with a class label; see active, inactive

Call for entry CCCCC(CC)COC(=O)OOC(C)(C)C (stereo unspecified) : inactive

Call for entry C[N+]1(C)[C@@H]2CC[C@H]1CC(OC(=O)C(CO)c1ccccc1)C2 (stereo partly specified) : inactive

Call for entry CC(Cc1ccc(O)cc1)NCC(O)c1cc(O)cc(O)c1 (stereo unspecified) : inactive

Call for entry CCC(OC(C)=O)C(CC(C)NC)(c1ccccc1)c1ccccc1 (stereo unspecified) : inactive

Call for entry [O-][Cl+3]([O-])([O-])O : inactive

Call for entry CC[C@H](C)[C@H]1O[C@]2(C=C[C@@H]1C)C[C@@H]1C[C@@H](C/C=C(\C)[C@@H](O[C@H]3C[C@H](OC)[C@@H](O[C@H]4C[C@H](OC)[C@@H](NC)[C@H](C)O4)[C@H](C)O3)[C@@H](C)/C=C/C=C3\CO[C@@H]4[C@H](O)C(C)=C[C@@H](C(=O)O1)[C@]34O)O2 : active

Call for entry Cc1cccc(Cc2cnc[nH]2)c1C : active

Call for entry O=c1[nH]c(Cl)c(Cl)cc1Cl : active

Call for entry CCO/N=C(\CC)C1=C(O)CC(c2c(C)cc(C)cc2C)CC1=O (stereo unspecified) : active

Call for entry Brc1ccc(Oc2ccc(Br)cc2Br)c(Br)c1 : active

Call for entry CCCCON=O : inactive
